Examples of molecules with documented growth inhibition follow.
assay: NCI Yeast Anticancer Drug Screen. Data for the rad50 strain (AID 155);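 note: 0% = growth of vehicle-only cultures of the same strain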; details: S. cerevisiae rad50 strain growth inhibition; at 50.0 µM; hits give high values
The panel holds about 79,000 compounds, 15% with a hit somewhere; the sample as a whole holds those more often. The source made the active and inactive calls. Cut-off read from the data, not from the text of the source: active = growth inhibition above about 70%; inactive = the rest.

Previously resolved entries follow.
MOLECULE	ENDPOINT	RECORDED RESULT
COc1ccc(C(C#N)N2CCCN(C(C#N)c3ccc(OC)cc3)C2c2ccccc2)cc1 (configuration not stated)	growth inhibition	-2.1% (inactive)
CCCCCC(/C=N/Nc1ccccn1)=C\c1ccccc1	growth inhibition	-0.25% (inactive)
COC(=O)c1ccccc1NC(=O)/C(=N\NC(C)(C)C)C(C#N)c1nc(-c2ccc([N+](=O)[O-])cc2)cs1 (configuration not stated)	growth inhibition	-4.35% (inactive)
CCC(C)(CC(=O)O)CC(=O)O	growth inhibition	-13.9% (inactive)
CCN(CC)CCC(=O)O[C@H]1CC[C@H](CC(C)[C@H]2CC(=O)C(C)C=C(C)[C@H](OC(=O)CCN(CC)CC)C(OC)C(=O)[C@@H](C)CC(C)/C=C/C=C/C=C(C)C(OC)CC3CC[C@H](C)[C@](O)(O3)C(=O)C(=O)N3CCCCC3C(=O)O2)CC1OC (some centres not stated)	growth inhibition	89.6% (active)

Sample "COc1ccc(C(CC(=O)O)CC(=O)O)cc1" — what was its growth inhibition?
46.3% (inactive)

Please answer likewise for "CCOC(=O)Nc1c(O)cccc1N1CCOCC1"
-14.1% (inactive)

Please answer likewise for "COC(=O)/C=C/c1ccc2c(c1)CCC2"
-35.5% (inactive)

Please answer likewise for "CN1CC(=O)N(C(=O)c2ccccc2)C1=N"
-6.6% (inactive)

Please answer likewise for "COc1cccc(-c2ccccc2)c1"
7.35% (inactive)

Please answer likewise for "COC(=O)c1c([N+](=O)[O-])ncn1[C@H]1OC[C@@H](OC(C)=O)[C@@H](OC(C)=O)[C@@H]1OC(C)=O"
-24.8% (inactive)

Please answer likewise for "CC[N+](C)(CC)c1cccc(OC(=O)N2CCCCC2)c1"
7.8% (inactive)

Please answer likewise for "CCCC(=O)OCC(C)(C)COC(=O)CCC"
-5.65% (inactive)

---

assay: NCI Yeast Anticancer Drug Screen. Data for the mec2-1 strain (AID 157); settings: S. cerevisiae mec2-1 strain, at 50.0 µM, hits give high values
About 79,000 compounds went through this panel and 15% of them were active in at least one assay; those are over-represented in the sample as a whole.
ENDPOINT: growth inhibition (%)
Numbers only; they are read as %.

Previously resolved entries follow.
COMPOUND	ENDPOINT	RECORDED RESULT
COc1cc(OC)c(C2c3cc4c(cc3OC(N3CCCC3)C2C)OCO4)c(OC)c1 (stereo unspecified)	growth inhibition	-11.8
CCOC(=O)c1cn2c(nc1=O)N[C@H]1CCCC[C@@H]12	growth inhibition	11.1
Cc1cc(O)c(C(C)C)cc1N=Cc1ccccc1O	growth inhibition	-23.6
CCCc1c(C)nc2scc(-c3ccccc3)n2c1=O	growth inhibition	16.5
N#CC(C#N)=NO (tested in a mixture with another compound)	growth inhibition	6.6
CC1OCOC1C1OCOCC1OC(=O)c1ccccc1 (stereo unspecified)	growth inhibition	-5.5

Sample "[O-]c1on[n+]2c1c(Nc1ccc(Cl)cc1)nc1ccccc12" — what was its growth inhibition?
-28

Please answer likewise for "CCN(CC)c1cc2oc(=O)cc(C)c2cc1NC(=O)c1cc([N+](=O)[O-])cc([N+](=O)[O-])c1"
-0.7

Please answer likewise for "CCN(CC)C(=S)N/N=C/c1ccccn1"
92

Please answer likewise for "S=C=Nc1ccc(CSc2nc3ccccc3[nH]2)cc1"
-9.25

Please answer likewise for "O=c1ccn(/C=C\c2nc3ccccc3[nH]c2=O)c(=S)[nH]1"
-27.3

---

Examples of molecules with documented growth inhibition follow.
experiment: NCI Yeast Anticancer Drug Screen. Data for the rad50 strain (AID 155);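 note: 0% = growth of vehicle-only cultures of the same strain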; settings: S. cerevisiae rad50 strain growth inhibition; at 50.0 µM; hits give high values
This is part of a sample that, as a whole, favours compounds with a hit. Of some 79,000 tested, about 15% had one in any assay.
Numbers only; they are read as %.

Previously resolved entries follow.
MOLECULE	RECORDED RESULT
C=C1C(=O)[C@@]23CC[C@@H]4[C@@]5(C)CCC[C@@]4(OC5=O)C2(C)CC[C@]1(OC)C3 (stereo partly specified)	87.2
COc1cccc(N2C(Cl)C(=O)C2c2c[nH]c3ccccc23)c1 (stereo unspecified)	-31.4
Cc1ccc(NCC(O)CN2CCOCC2)cc1 (stereo unspecified)	34.2
CCC1=NCCO1	5.85
CC1C=CC(O)[C@]2(CO)CC3(CCC12)OCCO3 (stereo partly specified)	-13.7
COc1c(Cl)cc([N+](=O)[O-])cc1C(=O)O	6.4
CN(C)c1ccc(/C=C2N=C(/C=C\c3ccccc3)OC\2=O)cc1	-5.5
O=C(CCC(=O)Nc1ccc(Cl)cc1)CC(=O)c1ccc2ccccc2c1	-51
Nc1ccn[nH]1	5.1
O=C(O)c1cccc2c1C1CCC2c2cccc(C(=O)O)c21	-29.2

Sample "CCOC(=O)c1cnc2cc(C)cc(C)c2c1Nc1ccc2c(c1)OCO2" — what was its growth inhibition?
-8.15

Please answer likewise for O=C(NCCCCC(Br)C(=O)O)c1ccccc1 (stereo unspecified)
-30

Please answer likewise for "CN(C)C(=O)NO"
-32

---

Examples of compounds with documented growth inhibition follow.
experiment: NCI Yeast Anticancer Drug Screen. Data for the rad50 strain (AID 155);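 note: 0% = growth of vehicle-only cultures of the same strain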; settings: S. cerevisiae rad50 strain growth inhibition; at 50.0 µM; hits give high values
Compounds without any hit were thinned out: in the full panel of roughly 79,000, 15% have a hit.
Numbers only; they are read as %.

Previously resolved entries follow.
COMPOUND	UNITS TEXT	growth inhibition
Cc1cccc(C)c1NC(=O)C(=O)CC(=O)c1cccc([N+](=O)[O-])c1	%	45.4
CCCCCCCCCCCCOc1ccc2ccccc2c1	%	-7.2
CCCCCCCCc1cc(CN(C)C)c(O)c(C(C)(C)CC(C)(C)C)c1	%	-13.7

Sample "CCOC(=O)c1c(C)c2c(n1C)CC/C(=C\N1CCOCC1)C2=O" — what was its growth inhibition?
11.3

Please answer likewise for "O=C(C(=O)c1ccccc1)c1ccccc1"
9.35

Please answer likewise for "Oc1c(O)c(Cc2ccccc2)c(Cc2ccccc2)c(Cc2ccccc2)c1Cc1ccccc1"
40.7

Please answer likewise for "O=C(/C=C/c1ccccc1O)c1ccccc1"
-22.8

Please answer likewise for "BrC1(C2(Br)N(c3ccccc3)CCN2c2ccccc2)N(c2ccccc2)CCN1c1ccccc1"
53

Please answer likewise for "CCN(CC)c1ccc(C=O)cc1"
6.8

Please answer likewise for O=[N+]([O-])c1ccc(C2ON=C(c3ccccc3)N2C23CC4CC(CC(C4)C2)C3)cc1 (stereo unspecified)
-12.6

Please answer likewise for "N#Cc1ccc(OCCCOc2ccccc2)cc1"
4.2

---

assay: NCI Yeast Anticancer Drug Screen. Data for the mlh1 rad18 strain (AID 175); settings: S. cerevisiae mlh1 rad18 strain growth inhibition; at 50.0 µM; hits give high values
This is part of a sample that, as a whole, favours compounds with a hit. Of some 79,000 tested, about 15% had one in any assay.
ENDPOINT: growth inhibition (%)
Numbers only; they are read as %.

MOLECULE	UNITS TEXT	RECORDED RESULT
N#Cc1c(N2CCCC2)ncn(Cc2ccccc2)c1=S	%	-0.2

Please find the next molecule below.
Sample "C(=C\C(SCc1ccccc1)SCc1ccccc1)/c1ccccc1" — what was its growth inhibition?
-35.6

---

Examples of compounds with documented growth inhibition follow.
assay: NCI Yeast Anticancer Drug Screen. Data for the bub3 strain (AID 167); conditions: S. cerevisiae bub3 mutant strain, at 50.0 µM, hits give high values
The panel holds about 79,000 compounds, 15% with a hit somewhere; the sample as a whole holds those more often.
Numbers only; they are read as %.

Previously resolved entries follow.
COMPOUND	RECORDED RESULT
c1ccc(C[S][Sn]([c]2ccccc2)([c]2ccccc2)[c]2ccccc2)cc1	97
N#Cc1nnc2cc(-c3ccccc3)nn2c1-c1cccs1	4.1

Sample "COC(=O)n1c(=O)oc2ccc(Br)cc21" — what was its growth inhibition?
99.5

Please answer likewise for CN1C(=O)N(C)C2(CCN(CC(CC3OCCO3)c3ccc(F)cc3)CC2)C1=O (stereo unspecified)
-6.8

Please answer likewise for CSc1ccccc1C1CCCCCC1O (stereo unspecified)
-30.6

Please answer likewise for "OCC(Cl)(Cl)C(Cl)(Cl)CO"
-28.6

---

assay: NCI Yeast Anticancer Drug Screen. Data for the bub3 strain (AID 167); settings: S. cerevisiae bub3 mutant strain, at 50.0 µM
Compounds without any hit were thinned out: in the full panel of roughly 79,000, 15% have a hit. Activity calls are given as the source filed them. Rule as the data show it: active = growth inhibition above about 70%; inactive = the rest.
Write down one outcome, taken from label 1 (active), label 0 (inactive)

Reference set, count: 5
COMPOUND	CATEGORY LABEL
CCCCCC(=O)N1SC(NC(=O)OC)=Nc2ccccc21	label 1
CCc1nnc2n1N=C(c1ccc(-c3ccccc3)cc1)CS2	label 0
Cc1[nH]nc2c(=O)n(N)nnc12	label 0
CC(=O)OCc1cccc(O)c1C(=O)CCC=C(C)C	label 0
CC(C)Cc1ccc(OC(=O)Nc2ccccc2)cc1	label 0

Lab log entry: Nc1nc(=O)n(C2CCC(CO)O2)cc1F (stereo not given) — outcome as called in the assay?
label 0

Please answer likewise for "O=C1ON=C2C3CC4CC12CC1(C3)C(=O)ON=C41"
label 0

Cited source for all entries: PubChem BioAssay (NCI)
